# assay_info: survival rescue of mitochondrial mutant cells in low glucose, primary screen, MELAS cybrids, Rieske KO mouse fibroblasts, CellTiter-Glo (AID 1508586);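 further: z relative to plate mean and SD of compound and empty wells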
# condition_label: Rieske KO mouse fibroblast survival, CellTiter-Glo 72 h
List of z-score values.

Please review the entries below; each comes with its answer.
structure_notation	z-score
NNCCc1ccccc1	-0.108
CN1CCN(C(=O)c2ccc(NC(=O)Nc3ccc(N(C)c4ccnc(Nc5ccc(CS(C)(=O)=O)cc5)n4)cc3)cc2)CC1	0.134

# next compound below
Exercise: Which value of z-score has been reported for `NC(=O)c1cccc(Nc2nccc(Nc3cccc(F)c3)n2)c1` in the records?
Key: -0.359

###

# system_name: Cellular tumor antigen p53 (Homo sapiens)
# assay_info: kinase inhibitors altering GFP-p53 stability in HPV16-positive cells, imaging, known kinase inhibitor set, EGFP/DsRed ratio (AID 1053116);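 further: cells exposed to compounds for 24 h at 37 °C before reading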
# condition_label: stronger effect = higher value; measured here: GFP-p53 positive objects count
Criterion: EGFP object count meeting or surpassing 6. Met: class 1. Not met: class 0.

compound	qualitative_label
COc1cccc(C(=O)c2sc(Nc3ccc(N4CCN(C(C)C)CC4)cc3)nc2N)c1	class 0
Cn1cc(C2=C(c3c4n(c5ccccc35)CCC(CN)CC4)C(=O)NC2=O)c2ccccc21 (stereo unspecified)	class 1

Exercise: Threshold query (EGFP object count >= 6) on `CCc1nccc2c1nc(-c1nonc1N)n2CC`
Key: class 0

Exercise: And for `O=C(O[C@H]1CN[C@H](C#Cc2cc3ncnc(Nc4ccc5c(cnn5Cc5ccccc5)c4)c3s2)C1)N1CCOCC1` ?
Key: class 0

Exercise: Entry `c1cnn2ncc(-c3ccnc(Nc4ccc5c(c4)OCCO5)n3)c2c1` please
Key: class 0

Exercise: Next entry: CCCN1CCCC(c2ccc(Nc3nc(Nc4cc(F)ccc4C(N)=O)c4cc[nH]c4n3)c(OC)c2)C1 (stereo unspecified)
Key: class 1

Exercise: Same for `Nc1c(C(=O)c2cccc(CCS(N)(=O)=O)c2)cnn1-c1ccc(F)cc1`
Key: class 0

###

# System: Hepatitis C virus NS3 helicase
# assay_info: HCV NS3 helicase inhibitors, primary screen, biochemical, fluorescence polarization, NIH Clinical Collection (AID 743270)
# condition_label: NS3 helicase binding to Cy5-dT15 DNA, stronger effect = higher value, concentration not given here
value_kind: inhibition (%)
Entry rule: numbers only, all in %.

Solved entries (count: 5):
compound	inhibition / %
O=C1CCC(N2C(=O)c3ccccc3C2=O)C(=O)N1 (stereo not drawn)	-1.36
CC[N+](C)(C)c1cccc(O)c1	-1.36
Cc1c(OCC(F)(F)F)ccnc1CS(=O)c1nc2ccccc2[nH]1 (stereo not drawn)	1.53
C[C@]12CCC(=O)C=C1CC[C@@H]1[C@@H]2C(=O)C[C@@]2(C)[C@H]1CC[C@]2(O)C(=O)CO	-1.97
CN(C)CCOC(c1ccccc1)c1ccccc1	-1.19

Exercise: Return inhibition measured with Hepatitis C virus NS3 helicase given this compound: CSc1ccc2c(c1)N(CCC1CCCCN1C)c1ccccc1S2 (stereo not drawn)
Key: -5

###

viability reference
# assay_info: ovarian cancer cell viability with rucaparib, profiling panel, oncology-focused library, rucaparib conditional (AID 1508598)
# condition_label: patient-derived ovarian cancer cells, CellTiter-Glo viability, 144 h; at 0.00488 µM; OCI-C5x cells; with rucaparib 10 µM; stronger effect = lower value; 100% = cells with rucaparib alone
Your answer should be a plain number; it is taken to be in %.

Consider the following illustrative entries.
molecule	viability [%]
CN(CCOc1ccc(CC2SC(=O)NC2=O)cc1)c1ccccn1 (configuration not stated)	123
Cc1ccc(-c2cc(C(F)(F)F)nn2-c2ccc(S(N)(=O)=O)cc2)cc1	118
CCN(CC)C(=S)SSC(=S)N(CC)CC	117
CCCCCCNC(=O)n1cc(F)c(=O)[nH]c1=O	115
S=c1nc[nH]c2nc[nH]c12	111

Exercise: Given `CC(C)C(=O)Nc1ccc([N+](=O)[O-])c(C(F)(F)F)c1` , state its recorded viability.
Key: 111

Exercise: Item: O=C1CCC(N2C(=O)c3ccccc3C2=O)C(=O)N1 (configuration not stated)
Key: 110
